Ref: patent US20210155689A1

- testedSystem: T1, human LAG-3 on cells (HEK293-hLAG-3 stable cell line) (human, UniProt P18627 23-525)
- T1 sequence: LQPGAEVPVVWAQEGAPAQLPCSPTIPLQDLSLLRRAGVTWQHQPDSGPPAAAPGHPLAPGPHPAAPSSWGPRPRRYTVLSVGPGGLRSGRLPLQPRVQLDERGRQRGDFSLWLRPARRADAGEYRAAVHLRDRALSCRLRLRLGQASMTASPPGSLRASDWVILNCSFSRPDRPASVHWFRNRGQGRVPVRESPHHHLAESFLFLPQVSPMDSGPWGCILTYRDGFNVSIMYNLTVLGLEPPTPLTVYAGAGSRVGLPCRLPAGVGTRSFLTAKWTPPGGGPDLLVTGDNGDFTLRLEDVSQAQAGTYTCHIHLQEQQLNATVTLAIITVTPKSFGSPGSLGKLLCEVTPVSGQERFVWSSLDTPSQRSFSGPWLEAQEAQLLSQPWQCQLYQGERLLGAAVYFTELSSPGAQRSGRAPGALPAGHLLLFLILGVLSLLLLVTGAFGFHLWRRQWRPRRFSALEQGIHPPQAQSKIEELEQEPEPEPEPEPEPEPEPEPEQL
- testDetails: FACS, HEK293-hLAG-3, antibody 0.064 nM
Catalogue of binders with associated Mean fluorescence intensity

binder	Mean fluorescence intensity
556F6B8-1 humanized antibody (antibody, V domains shown) VH: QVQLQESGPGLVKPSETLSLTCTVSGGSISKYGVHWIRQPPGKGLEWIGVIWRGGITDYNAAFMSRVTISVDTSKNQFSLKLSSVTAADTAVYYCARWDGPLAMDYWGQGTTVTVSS VL: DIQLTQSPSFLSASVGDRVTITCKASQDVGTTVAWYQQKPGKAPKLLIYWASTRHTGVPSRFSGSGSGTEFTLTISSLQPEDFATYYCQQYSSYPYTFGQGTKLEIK	4
556F6B8-6 humanized antibody (antibody, V domains shown) VH: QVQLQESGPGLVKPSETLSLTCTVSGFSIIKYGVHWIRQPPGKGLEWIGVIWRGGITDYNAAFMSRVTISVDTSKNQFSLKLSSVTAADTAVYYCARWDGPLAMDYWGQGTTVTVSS VL: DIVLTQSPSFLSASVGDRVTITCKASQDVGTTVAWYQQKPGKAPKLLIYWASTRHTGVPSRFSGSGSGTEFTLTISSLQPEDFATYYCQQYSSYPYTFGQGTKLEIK	6
556F6B8-2 humanized antibody (antibody, V domains shown) VH: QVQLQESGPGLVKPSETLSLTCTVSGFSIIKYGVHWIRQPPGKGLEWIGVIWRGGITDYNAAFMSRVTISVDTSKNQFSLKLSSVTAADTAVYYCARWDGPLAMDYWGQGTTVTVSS VL: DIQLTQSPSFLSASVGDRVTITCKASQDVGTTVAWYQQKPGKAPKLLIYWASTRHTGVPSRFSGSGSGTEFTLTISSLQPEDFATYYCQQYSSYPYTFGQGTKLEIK	5
